Sourced from paper PMC3117126

target: human P2Y2 receptor (Homo sapiens); test: PLC activation; assay type: cell-based; conditions: 10 µM; printed in EC50 column; NE = no effect at 10 µM
Sequence (P41231 whole entry): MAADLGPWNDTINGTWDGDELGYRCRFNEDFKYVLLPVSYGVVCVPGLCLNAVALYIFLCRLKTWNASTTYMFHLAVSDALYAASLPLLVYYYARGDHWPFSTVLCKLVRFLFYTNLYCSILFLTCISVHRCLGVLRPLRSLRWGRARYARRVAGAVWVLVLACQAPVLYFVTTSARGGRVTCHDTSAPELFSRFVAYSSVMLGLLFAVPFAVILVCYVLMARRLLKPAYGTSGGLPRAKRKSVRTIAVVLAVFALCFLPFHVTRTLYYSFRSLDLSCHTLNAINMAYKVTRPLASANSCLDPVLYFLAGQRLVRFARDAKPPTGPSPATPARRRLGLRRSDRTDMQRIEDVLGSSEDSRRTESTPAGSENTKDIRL
measured parameter: effect at 10 µM, hP2Y2

Suppose we examine the compound COc1ccc(OP(=O)(O)OP(=O)(O)OP(=O)(O)OP(=O)(O)OC[C@H]2O[C@@H](n3ccc(=O)[nH]c3=O)[C@H](O)[C@@H]2O)cc1 ; what effect at 10 µM, hP2Y2 value has been reported?
≤50% at 10 µM

Suppose we examine the compound COc1cccc(OP(=O)(O)OP(=O)(O)OP(=O)(O)OP(=O)(O)OC[C@H]2O[C@@H](n3ccc(=O)[nH]c3=O)[C@H](O)[C@@H]2O)c1 ; what effect at 10 µM, hP2Y2 value has been reported?
≤50% at 10 µM

Suppose we examine the compound O=c1ccn([C@@H]2O[C@H](COP(=O)(O)OP(=O)(O)C(Cl)(Cl)P(=O)(O)OP(=O)(O)O[C@H]3O[C@H](CO)[C@@H](O)[C@H](O)[C@H]3O)[C@@H](O)[C@H]2O)c(=O)[nH]1 ; what effect at 10 µM, hP2Y2 value has been reported?
≤50% at 10 µM
